These data points were gathered from patent US8716281B2.

Attribute: IC50
Target: wild-type human ALK cytoplasmic domain (amino acids 1058-1620) (Homo sapiens)
Construct: The cytoplasmic domain (amino acids 1058-1620) of wild-type human ALK; GST (N); made in house; host or cells: SF9 insect cells
Sequence (Q9UM73 1058-1620): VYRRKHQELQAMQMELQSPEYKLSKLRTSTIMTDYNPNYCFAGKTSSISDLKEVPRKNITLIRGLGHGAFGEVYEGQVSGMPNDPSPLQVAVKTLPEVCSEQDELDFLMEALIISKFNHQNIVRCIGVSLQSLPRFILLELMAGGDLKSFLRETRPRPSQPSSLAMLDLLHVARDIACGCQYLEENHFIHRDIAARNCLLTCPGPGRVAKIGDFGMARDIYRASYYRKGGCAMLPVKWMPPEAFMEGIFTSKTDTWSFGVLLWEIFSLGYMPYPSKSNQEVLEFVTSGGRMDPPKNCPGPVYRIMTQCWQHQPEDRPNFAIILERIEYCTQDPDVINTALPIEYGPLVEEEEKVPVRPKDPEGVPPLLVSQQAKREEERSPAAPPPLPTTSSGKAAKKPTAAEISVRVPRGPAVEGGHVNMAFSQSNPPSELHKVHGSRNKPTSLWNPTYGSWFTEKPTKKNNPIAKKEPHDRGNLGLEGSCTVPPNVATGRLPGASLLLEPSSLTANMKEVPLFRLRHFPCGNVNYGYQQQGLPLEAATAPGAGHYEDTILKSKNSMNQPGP
Test: ALK Inhibition in Enzyme Assay (Lance TR-FRET)
Assay type: biochemical
Conditions: 2 nM enzyme, ATP at 40 μM (Km apparent), 90 minutes, mean of three replicates; read-out: ALK IC50

test_smiles=COc1cc(Nc2nccc(N3CCC[C@H](C(=O)NCc4ccc(-n5cccn5)cc4)C3)n2)cc(OC)c1OC measure_name=IC50 meas_value="1000 to 5000 nM"
test_smiles=COc1cc(Nc2nccc(N3CCC[C@H](C(=O)NCc4ccc(F)c(F)c4)C3)n2)cc(OC)c1OC measure_name=IC50 meas_value="100 to 1000 nM"
test_smiles=CCOc1cccc(Nc2nccc(N3CCC[C@H](C(=O)NCc4ccc(C)cc4)C3)n2)c1 measure_name=IC50 meas_value="100 to 1000 nM"

What value of IC50 has been recorded for this entry: `Cc1ccc(CNC(=O)[C@H]2CCCN(c3ccnc(Nc4cccc(OCc5ccccc5)c4)n3)C2)cc1` 1000 to 5000 nM
